B1: tRNA (parent)
chain: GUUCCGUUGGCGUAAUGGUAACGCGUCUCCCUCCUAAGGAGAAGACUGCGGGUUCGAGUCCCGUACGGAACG

Variants of: B1
Assay: yeast fitness relative to wild type (ratio to wild type); higher = fitter; tRNA-Arg(CCU), competitive growth, 37 C, YPD
Variants at the floor of the assay were thinned out.
Reported values of yeast fitness for individual entries
// keep it numeric: no unit symbol after the value

Solved cases (3 shown):
Any idea what its yeast fitness is? The variant is A37G C46U C62G
0.533

Find the recorded yeast fitness belonging to C5G G48C A69U and report it.
0.587

Tell me the measured yeast fitness of C5G A42G U64G , please.
0.637

---
What does the record list as yeast fitness for C29A C49U ?
0.627

Returns the measured yeast fitness for the input variant. Input: C5A G39A C60U C62A
0.557

Entry C4A C27A G38A : reported yeast fitness = ?
0.513

For the variant shown here, A15G C22G U35C A43U , give the reported yeast fitness.
0.556

Value lookup for yeast fitness; key = G6A U35A C62A C66G
0.694
